// reported IC50 for each item listed
Biological target: JAK1 (Homo sapiens, UniProt P23458)
Sequence (P23458 whole entry): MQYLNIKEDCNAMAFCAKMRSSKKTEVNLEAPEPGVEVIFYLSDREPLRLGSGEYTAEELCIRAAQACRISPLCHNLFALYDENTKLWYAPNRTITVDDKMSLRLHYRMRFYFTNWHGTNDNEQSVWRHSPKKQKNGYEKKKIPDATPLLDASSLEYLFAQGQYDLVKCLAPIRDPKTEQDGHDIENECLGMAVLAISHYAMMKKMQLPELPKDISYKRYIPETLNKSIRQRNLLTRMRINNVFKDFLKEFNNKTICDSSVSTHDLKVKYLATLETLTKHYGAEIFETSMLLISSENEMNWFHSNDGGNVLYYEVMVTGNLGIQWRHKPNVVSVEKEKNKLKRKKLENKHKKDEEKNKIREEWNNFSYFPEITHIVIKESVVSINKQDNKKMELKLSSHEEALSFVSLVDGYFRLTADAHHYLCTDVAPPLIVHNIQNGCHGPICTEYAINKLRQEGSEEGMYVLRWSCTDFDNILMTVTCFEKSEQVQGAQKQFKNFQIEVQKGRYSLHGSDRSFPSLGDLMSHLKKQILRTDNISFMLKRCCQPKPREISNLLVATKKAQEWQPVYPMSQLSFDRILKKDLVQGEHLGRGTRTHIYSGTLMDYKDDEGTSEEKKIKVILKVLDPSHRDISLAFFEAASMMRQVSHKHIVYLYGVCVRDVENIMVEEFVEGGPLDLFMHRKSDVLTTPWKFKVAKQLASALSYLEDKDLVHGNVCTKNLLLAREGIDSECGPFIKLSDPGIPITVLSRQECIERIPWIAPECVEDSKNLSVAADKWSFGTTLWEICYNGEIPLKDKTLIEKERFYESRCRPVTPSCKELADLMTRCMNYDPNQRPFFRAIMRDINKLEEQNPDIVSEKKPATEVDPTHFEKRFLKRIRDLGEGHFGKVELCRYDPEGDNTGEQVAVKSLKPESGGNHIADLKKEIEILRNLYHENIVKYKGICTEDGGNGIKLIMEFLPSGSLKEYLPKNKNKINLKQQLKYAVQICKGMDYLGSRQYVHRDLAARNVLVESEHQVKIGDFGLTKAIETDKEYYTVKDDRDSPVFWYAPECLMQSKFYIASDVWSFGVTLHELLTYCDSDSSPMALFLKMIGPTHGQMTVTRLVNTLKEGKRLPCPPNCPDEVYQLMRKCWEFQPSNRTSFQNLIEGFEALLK
Experiment: Test for in vitro activity of JAK1 kinase (LANCE Ultra ULight peptide)
Settings: recombinant human JAK1, 38 uM ATP, 90 min

Molecule: CN(c1ncnc2[nH]ccc12)C1CCn2cc(C(=O)NCC(F)(F)F)nc2C1 (stereo not shown)
IC50: 0.1 to 1 µM
--
Molecule: CN(c1ncnc2[nH]ccc12)C1CCn2cc(CC#N)nc2C1 (single isomer, unassigned) [WX613]
IC50: 0.01 to 0.1 µM
--
Molecule: CN(c1ncnc2[nH]ccc12)[C@@H]1CCn2cc(C#N)nc2C1 (single isomer, unassigned)
IC50: > 1 µM

Item CN(c1ncnc2[nH]ccc12)C1CCn2cc(C(=O)NCC#N)nc2C1 (stereo not shown) has what recorded IC50? 0.1 to 1 µM

Data provenance: patent US10174056B2
